Entries and their IC50 values follow.
# System: HL-60
# assay-details: Cytotoxicity against human HL60 cells after 72 hrs by MTT assay
# Assay type: functional, cell-based
# measurement-setup: HL-60, 72 h
result-type: IC50 (µM)

* C=C1CO[C@@]2(O[C@H]3C[C@H]4[C@@H]5CC=C6C[C@@H](O)C[C@@H](O[C@@H]7OC[C@H](O)[C@H](O)[C@H]7O[C@@H]7O[C@@H](C)[C@H](OC(C)=O)[C@@H](OC(C)=O)[C@H]7OC(C)=O)[C@]6(C)[C@H]5CC[C@]4(C)[C@H]3[C@@H]2C)[C@@H](O)[C@H]1O | 9.7
* CO[C@]1(CC[C@@H](C)CO[C@@H]2O[C@H](CO)[C@@H](O)[C@H](O)[C@H]2O)O[C@H]2C[C@H]3[C@@H]4CC=C5C[C@@H](O[C@@H]6O[C@H](CO)[C@@H](O[C@@H]7O[C@@H](C)[C@H](O)[C@@H](O)[C@H]7O)[C@H](O)[C@H]6O[C@@H]6O[C@@H](C)[C@H](O)[C@@H](O)[C@H]6O)CC[C@]5(C)[C@H]4CC[C@]3(C)[C@H]2[C@@H]1C | 7.3
* C=C1CO[C@@]2(O[C@H]3C[C@H]4[C@@H]5CC=C6C[C@@H](O)C[C@@H](O[C@@H]7OC[C@H](O)[C@H](O)[C@H]7O[C@@H]7O[C@@H](C)[C@H](O)[C@@H](OC(C)=O)[C@H]7OC(C)=O)[C@]6(C)[C@H]5CC[C@]4(C)[C@H]3[C@@H]2C)[C@@H](O)[C@H]1O | 39
* C[C@@H]1CC[C@@]2(OC1)O[C@H]1C[C@H]3[C@@H]4CC=C5C[C@@H](O[C@@H]6O[C@H](CO)[C@@H](O)[C@H](O[C@@H]7O[C@H](CO)[C@@H](O)[C@H](O)[C@H]7O)[C@H]6O[C@@H]6O[C@@H](C)[C@H](O)[C@@H](O)[C@H]6O)CC[C@]5(C)[C@H]4CC[C@]3(C)[C@H]1[C@@H]2C | 3.7
